Recorded Ki for the following compounds
Target: M1 (Cortex) (Rattus norvegicus)
Sequence (P08482 1-460): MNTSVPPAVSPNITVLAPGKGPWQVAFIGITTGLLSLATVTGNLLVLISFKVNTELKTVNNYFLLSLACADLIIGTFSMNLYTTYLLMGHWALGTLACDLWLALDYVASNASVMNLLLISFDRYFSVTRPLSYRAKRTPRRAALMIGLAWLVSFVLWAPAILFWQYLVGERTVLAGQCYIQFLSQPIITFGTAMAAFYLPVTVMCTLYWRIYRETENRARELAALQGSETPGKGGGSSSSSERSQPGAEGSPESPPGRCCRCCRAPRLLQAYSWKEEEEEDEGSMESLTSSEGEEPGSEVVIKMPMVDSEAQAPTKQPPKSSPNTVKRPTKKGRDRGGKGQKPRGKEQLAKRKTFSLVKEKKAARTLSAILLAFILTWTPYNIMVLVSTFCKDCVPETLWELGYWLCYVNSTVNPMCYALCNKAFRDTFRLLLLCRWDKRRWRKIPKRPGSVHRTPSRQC
Note: state the figure and append the unit.

compound: CCCC(C)(C)C(=O)N(CC)CCCC1CCN(CC(=O)N2c3ccc(Cl)cc3C(=O)Nc3cccnc32)CC1 [Substance D]
Ki: 866 nM

compound: CCCN(CCC)CC1CCCCN1CCNC(=O)N1c2ccccc2C(=O)Nc2cccnc21 (stereo not shown) [L]
Ki: 30 nM

compound: O=C1Nc2cccnc2N(C(=O)CCC#CCN2CCCCC2)c2ccccc21 [J]
Ki: 794 nM

In: For the compound O=C1Nc2cccnc2N(C(=O)CCCCCN2CCCCC2)c2ccccc21 [Substance O, reference compound] , give its measured Ki value.
Out: 10 nM
